# Experiment description: NCI Yeast Anticancer Drug Screen. Data for the mlh1 rad18 strain (AID 175)
# Stated conditions: S. cerevisiae mlh1 rad18 strain growth inhibition; at 50.0 µM
The panel holds about 79,000 compounds, 15% with a hit somewhere; the sample as a whole holds those more often. Activity calls are given as the source filed them. No stated cut-off is given here; in the data, active means growth inhibition above about 70%; inactive means the rest.
Use one of these outcomes when replying: T = active, F = inactive

>>> assigned_category("CC(=O)O[C@H]1CCC2[C@@H]3CCC4c5nonc5CC[C@]4(C)C3CC[C@@]21C (stereo partly specified)")
"F"
>>> assigned_category("COC1=CC(=Nc2ccc(N(CCCl)CCCl)cc2)C=CC1=O")
"F"
>>> assigned_category("CC(=O)OC1(C(C)=O)CC2(c3ccccc3)OC1(c1ccccc1)c1ccccc12 (stereo unspecified)")
"F"

Task: Identify the outcome logged in this assay for the molecule shown: `O=C1C=C(N2CC2)C(=O)C(N2CC2)=C1N1CC1`
Output: T

Task: Identify the outcome logged in this assay for the molecule shown: CCCCCCCCCCCCCCCCCC[N+](C)(C)C (tested in a mixture with another compound)
Output: F

Task: Identify the outcome logged in this assay for the molecule shown: COC(=O)C1c2c(C)cc3n2C(C=CC3)C1C(=O)OC (stereo unspecified)
Output: F

Task: Identify the outcome logged in this assay for the molecule shown: COC1C=CC23c4cc5c(cc4COC2(O)CN(C)C3C1)OCO5 (stereo unspecified)
Output: F

Task: Identify the outcome logged in this assay for the molecule shown: `OCC(Br)(Br)Br`
Output: F

Task: Identify the outcome logged in this assay for the molecule shown: `CC(C)SP(=S)(SC(C)C)SC(C)C`
Output: F

Task: Identify the outcome logged in this assay for the molecule shown: COc1cc(C(=O)OC(C)CC2(c3ccccc3)C(=O)NC(=O)NC2=O)cc(OC)c1OC (stereo unspecified)
Output: F

Task: Identify the outcome logged in this assay for the molecule shown: CC[CH](C)[Sn](=[O])[c]1ccccc1 (stereo unspecified)
Output: T

Task: Identify the outcome logged in this assay for the molecule shown: `CCCCOP(=O)(/C=C/c1ccccc1)OCCCC`
Output: T

Task: Identify the outcome logged in this assay for the molecule shown: NC(Cc1ccc(Cl)cc1)P(=O)(O)O (stereo unspecified)
Output: F
